STUDY_TARGET: human mAChR M1 (Homo sapiens)
TEST_PROTOCOL: mAChR M1 cell-based functional assay (calcium mobilization), PAM mode: increase in the EC20 acetylcholine response
MEASUREMENT_KIND: Emax (%)

[2H]C1([2H])c2ncccc2C(=O)N1Cc1ccc(-c2ccc(OCC3(C#N)CC3)c3nn(C)cc23)cc1F = 79
[2H]C1([2H])c2ncccc2C(=O)N1Cc1c(F)cc(-c2ccc(OC(C)C)c3c2cnn3C([2H])([2H])[2H])cc1F = 51
[2H]C([2H])([2H])Oc1cnc2c(c1)C(=O)N(Cc1c(F)cc(-c3ccc4nn(C)cc4c3)cc1F)C2([2H])[2H] = 63
[2H]C1([2H])c2ncccc2C(=O)N1Cc1ccc(-c2ccc(O[C@@H](C)COC)c3nn(C)cc23)cc1F = 80
[2H]C1([2H])c2ncccc2C(=O)N1Cc1c(F)cc(-c2ccc3nn(C([2H])([2H])[2H])cc3c2)cc1F = 85
[2H]C1([2H])c2ncccc2C(=O)N1Cc1c(F)cc(-c2ccc(OC3CC3)c3nn(C([2H])([2H])[2H])cc23)cc1F = 86
[2H]C1([2H])c2ncccc2C(=O)N1Cc1c(F)cc(-c2cccc3nn(C4COC4)cc23)cc1F = 80
[2H]C1([2H])c2ncccc2C(=O)N1Cc1ccc(-c2ccc(F)c3nn(C([2H])([2H])[2H])cc23)cc1C = 76
[2H]C1([2H])c2ncccc2C(=O)N1Cc1c(F)cc(-c2cc(OC)cc3nn(C)cc23)cc1F = 72
[2H]C1([2H])c2ncccc2C(=O)N1Cc1c(F)cc(-c2ccc(OC)c3nn(C([2H])([2H])[2H])cc23)cc1C1CC1 = 83
[2H]C1([2H])c2ncccc2C(=O)N1Cc1c(F)cc(-c2ccc(OC[C@@H](C)OC)c3nn(C)cc23)cc1F = 82
[2H]C1([2H])c2ncccc2C(=O)N1Cc1ccc(-c2ccc(OC[C@@H](C)OC)c3nn(C)cc23)cc1F = 86
[2H]C1([2H])c2ncccc2C(=O)N1Cc1ccc(-c2cc3cn(C)nc3cc2C)cc1F = 58
[2H]C1([2H])c2ncccc2C(=O)N1Cc1c(F)cc(-c2cccc3c2cnn3C2COC2)cc1F = 74
[2H]C1([2H])c2ncccc2C(=O)N1Cc1c(F)cc(-c2cccc3nn(C)cc23)cc1C(F)(F)F = 58
[2H]C1([2H])c2ncccc2C(=O)N1Cc1c(F)cc(-c2ccc(OCC)c3nn(C)cc23)cc1F = 80
[2H]C1([2H])c2ncccc2C(=O)N1Cc1c(F)cc(-c2ccc(OCCOC)c3nn(C([2H])([2H])[2H])cc23)cc1F = 77
[2H]C1([2H])c2ncccc2C(=O)N1Cc1c(F)cc(-c2cc(OC)c3nn(C)cc3c2)cc1F = 78
[2H]C1([2H])c2ncccc2C(=O)N1Cc1ccc(-c2cc(F)cc3nn(C)cc23)cc1 = 75
[2H]C1([2H])c2ncccc2C(=O)N1Cc1ccc(-c2ccc3nn(C)cc3c2)cc1F = 71
[2H]C1([2H])c2ncccc2C(=O)N1Cc1ccc(-c2ccc3c(cnn3C)c2)cc1F = 62

---

STUDY_TARGET: human mAChR M1 (Homo sapiens)
TEST_PROTOCOL: mAChR M1 cell-based functional assay (calcium mobilization), PAM mode: increase in the EC20 acetylcholine response
Experimental: Chinese hamster ovary (CHO-K1) cells stably expressing rat (r)M1 were purchased from the American Type Culture Collection and cultured according to their indicated protocol. […] Calcium flux was measured using the Functional Drug Screening System (FDSS) 6000 (Hamamatsu Corporation, Tokyo, Japan) as an increase in the fluorescent static ratio. […] Agonist activity was analyzed as a concentration-dependent increase in calcium mobilization upon compound addition. […]
MEASUREMENT_KIND: Emax (%)

[2H]C1([2H])c2ncccc2C(=O)N1Cc1c(F)cc(-c2ccc3nn(C)cc3c2)cc1C1CC1 = 88
[2H]C1([2H])c2ncccc2C(=O)N1Cc1c(F)cc(-c2ccc3nn(C)cc3c2)cc1Cl = 85
[2H]C1([2H])c2ncccc2C(=O)N1Cc1ccc(-c2ccc(C)c3nn(C([2H])([2H])[2H])cc23)cc1F = 87

---

STUDY_TARGET: human mAChR M1 (Homo sapiens)
Sequence (P11229 1-460): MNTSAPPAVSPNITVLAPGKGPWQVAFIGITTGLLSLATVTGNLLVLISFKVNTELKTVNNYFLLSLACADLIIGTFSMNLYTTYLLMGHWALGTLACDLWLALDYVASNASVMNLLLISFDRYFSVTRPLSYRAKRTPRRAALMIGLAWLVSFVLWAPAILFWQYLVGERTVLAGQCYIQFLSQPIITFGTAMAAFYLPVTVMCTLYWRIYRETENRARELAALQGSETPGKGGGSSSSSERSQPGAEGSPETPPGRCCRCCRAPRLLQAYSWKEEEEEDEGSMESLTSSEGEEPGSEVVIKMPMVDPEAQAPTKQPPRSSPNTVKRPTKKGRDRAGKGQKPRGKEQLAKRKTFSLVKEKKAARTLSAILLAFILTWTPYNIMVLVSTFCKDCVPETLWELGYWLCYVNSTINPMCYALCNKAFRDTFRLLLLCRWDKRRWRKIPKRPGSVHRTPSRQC
TEST_PROTOCOL: mAChR M1 cell-based functional assay (calcium mobilization), agonist mode: compound alone, Emax relative to acetylcholine maximum
EXPERIMENTAL_SETUP: human mAChR M1
pEC50: −log10 of the molar value.
MEASUREMENT_KIND: pEC50

I. [2H]C1([2H])c2ncccc2C(=O)N1Cc1c(F)cc(-c2cc(OC)c3nn(C)cc3c2)cc1F
II. [2H]C1([2H])c2ncccc2C(=O)N1Cc1c(F)cc(-c2ccc3nn(C)cc3c2)cc1C1CC1
III. [2H]C1([2H])c2ncccc2C(=O)N1Cc1c(F)cc(-c2ccnc3nn(C)cc23)cc1C1CC1
[ask] Ordering criterion: pEC50; begin with the maximum. I would appreciate it if you listed the labels in the requested order.
[reply] III, I, II
(III: 5.92, I: 5.43, II: 5.01)

---

STUDY_TARGET: human mAChR M1 (Homo sapiens)
TEST_PROTOCOL: mAChR M1 cell-based functional assay (calcium mobilization), agonist mode: compound alone, Emax relative to acetylcholine maximum
EXPERIMENTAL_SETUP: relative to the maximum for acetylcholine
MEASUREMENT_KIND: Emax (%)

[2H]C1([2H])c2ncccc2C(=O)N1Cc1c(F)cc(-c2ccc(OCSC)c3nn(C)cc23)cc1F = 6

A. [2H]C1([2H])c2ncccc2C(=O)N1Cc1ccc(-c2ccc(O[C@@H](C)COC)c3nn(C)cc23)cc1F
B. [2H]C1([2H])c2ncccc2C(=O)N1Cc1ccc(-c2ccc(F)c3nn(C([2H])([2H])[2H])cc23)cc1F
C. [2H]C1([2H])c2ncccc2C(=O)N1Cc1c(F)cc(-c2cccc3nn(C)cc23)cc1N1CCC1
[ask] Rank order required: Emax, descending. I would appreciate it if you listed the labels in the requested order.
[reply] A, B, C
(A: 27%, B: 5%, C: 2%)

---

STUDY_TARGET: human mAChR M1 (Homo sapiens, UniProt P11229)
TEST_PROTOCOL: mAChR M1 cell-based functional assay (calcium mobilization), PAM mode: increase in the EC20 acetylcholine response
MEASUREMENT_KIND: Emax (%)

// below: answered compounds
[2H]C1([2H])c2ncccc2C(=O)N1Cc1c(C)cc(-c2ccc(C)c3nn(C([2H])([2H])[2H])cc23)cc1F [Compound 157] = 81
[2H]C1([2H])c2ncccc2C(=O)N1Cc1c(F)cc(-c2ccc(OCCOC)c3nn(C)cc23)cc1Cl [Compound 170] = 81
[2H]C1([2H])c2ncccc2C(=O)N1Cc1c(F)cc(-c2ccc(OC(C)C)c3nn(C)cc23)cc1F [Compound 98] = 76
[2H]C1([2H])c2ncccc2C(=O)N1Cc1c(F)cc(-c2ccc(C3CC3)c3nn(C)cc23)cc1F [Compound 122] = 77
[2H]C1([2H])c2ncccc2C(=O)N1Cc1c(F)cc(-c2ccc(F)c3c2cnn3C([2H])([2H])[2H])cc1F [Compound 68] = 64
[2H]C1([2H])c2ncccc2C(=O)N1Cc1ccc(-c2cnc3nn(C)cc3c2)cc1C [Compound 34] = 82

A. [2H]C1([2H])c2ncccc2C(=O)N1Cc1c(C)cc(-c2ccc(Cl)c3nn(C)cc23)cc1F [Compound 199]
B. [2H]C1([2H])c2ncccc2C(=O)N1Cc1ccc(-c2ccc3nn(C)cc3c2C)cc1 [Compound 238]
[ask] Returns the identifier with the smallest measured Emax among A and B . Identify your selection by its label.
[reply] B
(B: 39%, A: 81%)

---

STUDY_TARGET: human mAChR M1 (Homo sapiens)
TEST_PROTOCOL: mAChR M1 cell-based functional assay (calcium mobilization), PAM mode: increase in the EC20 acetylcholine response
Protocol: Chinese hamster ovary (CHO-K1) cells stably expressing rat (r)M1 were purchased from the American Type Culture Collection and cultured according to their indicated protocol. […] Calcium flux was measured using the Functional Drug Screening System (FDSS) 6000 (Hamamatsu Corporation, Tokyo, Japan) as an increase in the fluorescent static ratio. […] Agonist activity was analyzed as a concentration-dependent increase in calcium mobilization upon compound addition. […]
MEASUREMENT_KIND: EC50 (nM)

// below: answered compounds
[2H]C([2H])([2H])Oc1ccc(-c2cc(F)c(CN3C(=O)c4cccnc4C3([2H])[2H])c(F)c2)c2cn(C([2H])([2H])[2H])nc12 = 139
[2H]C1([2H])c2ncccc2C(=O)N1Cc1c(F)cc(-c2ccc(C(F)(F)F)c3nn(C)cc23)cc1C1CC1 = 673
[2H]C1([2H])c2ncccc2C(=O)N1Cc1ccc(-c2ccc(C)c3nn(C)cc23)cc1F = 535

A. [2H]C1([2H])c2ncccc2C(=O)N1Cc1ccc(-c2cc3cn(C)nc3cc2C)cc1F
B. [2H]C1([2H])c2ncccc2C(=O)N1Cc1c(F)cc(-c2ccc(OCCOC)c3nn(C)cc23)cc1OCC(C)C
C. [2H]C1([2H])c2ncccc2C(=O)N1Cc1ccc(-c2ccc(OC(F)(F)F)c3nn(C)cc23)cc1F
[ask] Arrange items by their EC50 values in increasing order. I would appreciate it if you listed the labels in the requested order.
[reply] B, C, A
(B: 516 nM, C: 1440 nM, A: 7580 nM)

A. [2H]C1([2H])c2ncccc2C(=O)N1Cc1c(F)cc(-c2ccc(OCC3CN(C(=O)OC(C)(C)C)C3)c3nn(C)cc23)cc1F
B. [2H]C1([2H])c2ncccc2C(=O)N1Cc1c(F)cc(-c2ccc(C(F)(F)F)c3nn(C)cc23)cc1F
C. [2H]C1([2H])c2ncccc2C(=O)N1Cc1ccc(-c2ccc(C)c3nn(C([2H])([2H])[2H])cc23)cc1F
D. [2H]C1([2H])c2ncc(O)cc2C(=O)N1Cc1c(F)cc(-c2cccc3nn(C)cc23)cc1F
[ask] Arrange items by their EC50 values in increasing order. I would appreciate it if you listed the labels in the requested order.
[reply] D, C, B, A

A. [2H]C1([2H])c2ncccc2C(=O)N1Cc1ccc(-c2ccc(OC(C)COC)c3nn(C)cc23)cc1F (stereo not shown)
B. [2H]C([2H])([2H])Oc1ccc(-c2ccc(CN3C(=O)c4cccnc4C3([2H])[2H])c(F)c2)c2cn(C)nc12
[ask] Returns the identifier with the smallest measured EC50 among A and B . Identify your selection by its label.
[reply] B

P. [2H]C1([2H])c2ncccc2C(=O)N1Cc1c(F)cc(-c2ccc(OC)c3n[nH]cc23)cc1F
Q. [2H]C1([2H])c2ncccc2C(=O)N1Cc1c(C)cc(-c2ccc(OC)c3nn(C([2H])([2H])[2H])cc23)cc1F
R. [2H]C1([2H])c2ncccc2C(=O)N1Cc1ccc(-c2ccc3cncn3c2)cc1
[ask] Rank order required: EC50, descending. I would appreciate it if you listed the labels in the requested order.
[reply] R, P, Q
(R: 4170 nM, P: 436 nM, Q: 164 nM)

A. [2H]C1([2H])c2ncccc2C(=O)N1Cc1c(F)cc(-c2cn(C)c(=O)c3nn(C([2H])([2H])[2H])cc23)cc1F
B. [2H]C1([2H])c2ncccc2C(=O)N1Cc1c(C)cc(-c2ccc3nn(C([2H])([2H])[2H])cc3c2)cc1F
[ask] # returns the entry with the larger EC50; inputs A and B Identify your selection by its label.
[reply] A

A. [2H]C1([2H])c2ncccc2C(=O)N1Cc1ccc(-c2ccc3cn(C)nc3c2)cc1F
B. [2H]C([2H])([2H])Oc1cnc2c(c1)C(=O)N(Cc1ccc(-c3cccc4nn(C)cc34)cc1)C2([2H])[2H]
C. [2H]C1([2H])c2ncccc2C(=O)N1Cc1c(F)cc(-c2ccc(SC)c3nn(C)cc23)cc1F
[ask] Arrange items by their EC50 values in increasing order. I would appreciate it if you listed the labels in the requested order.
[reply] B, C, A
(B: 244 nM, C: 475 nM, A: 3970 nM)

I. [2H]C1([2H])c2ncccc2C(=O)N1Cc1c(F)cc(-c2ccc(C(F)(F)F)c3nn(C)cc23)cc1OCC(C)C
II. [2H]C1([2H])c2ncccc2C(=O)N1Cc1c(F)cc(-c2ccc(C)c3nn(C)cc23)cc1OCC(C)C
[ask] # returns the entry with the larger EC50; inputs I and II Identify your selection by its label.
[reply] I
(I: 3180 nM, II: 1520 nM)

P. [2H]C1([2H])c2ncccc2C(=O)N1Cc1c(F)cc(-c2ccn3ccnc3c2)cc1F
Q. [2H]C1([2H])c2ncccc2C(=O)N1Cc1ccc(-c2cncc3nn(C)cc23)cc1F
[ask] # returns the entry with the larger EC50; inputs P and Q Identify your selection by its label.
[reply] Q
